- target desc: Thioredoxin domain-containing protein 5 (Homo sapiens, UniProt Q8NBS9)
- Sequence (Q8NBS9 whole entry, the tested form may be a part): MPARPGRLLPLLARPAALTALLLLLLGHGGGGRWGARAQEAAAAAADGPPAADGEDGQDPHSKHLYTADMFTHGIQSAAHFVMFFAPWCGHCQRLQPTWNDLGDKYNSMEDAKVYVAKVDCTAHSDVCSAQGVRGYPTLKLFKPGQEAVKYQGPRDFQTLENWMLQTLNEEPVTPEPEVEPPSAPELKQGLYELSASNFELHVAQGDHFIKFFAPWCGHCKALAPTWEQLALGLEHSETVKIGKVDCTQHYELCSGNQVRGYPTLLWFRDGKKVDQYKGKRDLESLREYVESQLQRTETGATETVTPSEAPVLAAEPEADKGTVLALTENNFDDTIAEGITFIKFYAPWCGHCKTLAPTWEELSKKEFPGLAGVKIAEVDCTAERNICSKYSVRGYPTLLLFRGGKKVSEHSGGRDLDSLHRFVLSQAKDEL
measured quantity: IC50

Exam item: Identify measured IC50 corresponding to `CCCCCC/C=C1\C=C(C(F)(F)F)c2cc3c(cc21)OCO3`
Marked response: > 100 µM

----------
- target desc: Protein disulfide-isomerase A4 (Homo sapiens, UniProt P13667)
- Sequence (P13667 whole entry): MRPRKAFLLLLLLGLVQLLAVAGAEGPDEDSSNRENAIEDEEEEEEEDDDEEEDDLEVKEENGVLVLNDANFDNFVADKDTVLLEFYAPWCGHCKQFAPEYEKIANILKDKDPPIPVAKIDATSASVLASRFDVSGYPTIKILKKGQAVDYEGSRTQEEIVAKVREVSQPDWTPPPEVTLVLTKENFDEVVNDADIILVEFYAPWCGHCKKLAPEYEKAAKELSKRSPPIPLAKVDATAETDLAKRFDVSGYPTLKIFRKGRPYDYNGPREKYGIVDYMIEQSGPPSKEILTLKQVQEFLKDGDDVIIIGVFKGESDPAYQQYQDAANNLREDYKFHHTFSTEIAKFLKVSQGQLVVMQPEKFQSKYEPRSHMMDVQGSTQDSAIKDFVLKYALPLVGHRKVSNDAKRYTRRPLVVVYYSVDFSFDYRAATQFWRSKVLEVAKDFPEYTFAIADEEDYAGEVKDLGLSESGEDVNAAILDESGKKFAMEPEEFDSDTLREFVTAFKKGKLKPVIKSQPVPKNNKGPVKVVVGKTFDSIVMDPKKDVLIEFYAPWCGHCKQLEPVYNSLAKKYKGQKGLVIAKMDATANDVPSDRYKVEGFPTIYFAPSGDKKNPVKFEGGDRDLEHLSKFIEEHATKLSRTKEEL
measured quantity: pIC50
Convention used: pIC50 is expressed as -log10 of the molar concentration.

Exam item: Identify measured pIC50 corresponding to `CCCCCCCC/C=C1\C=C(C(F)(F)F)c2cc(O)c(O)cc21`
Marked response: 4.48
